test system: Staphylococcus epidermidis ATCC 12228; assay: Broth microdilution, S. epidermidis ATCC 12228; format: cell-based; conditions: Se 12228
measurement_type: MBC (µg/mL)
Please give a number only; it is taken to be in µg/mL.

Query: Report MBC for Cn1cc([N+](=O)[O-])nc1C(=O)NNC(=S)Nc1ccccc1C(F)(F)F please.
Result: 500

Query: Report MBC for Cn1cc([N+](=O)[O-])nc1C(=O)NNC(=S)Nc1ccc(Cl)cc1 please.
Result: 125

Query: Report MBC for COc1cccc(NC(=S)NNC(=O)c2nc([N+](=O)[O-])cn2C)c1 please.
Result: 500

Query: Report MBC for Cn1cc([N+](=O)[O-])nc1C(=O)NNC(=S)Nc1ccc(F)cc1 please.
Result: 500
